- systemName: XIAP BIR-3 (Homo sapiens, UniProt P98170)
- Construct: 40 nM of the respective IAP BIR3
- Sequence (P98170 241-356 limits assumed): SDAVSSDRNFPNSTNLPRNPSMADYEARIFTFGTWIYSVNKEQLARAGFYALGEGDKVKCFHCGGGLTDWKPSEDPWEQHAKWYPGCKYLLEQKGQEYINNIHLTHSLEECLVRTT
- testSummary: Fluorescence polarization binding to XIAP BIR-3 with labeled peptide AbuRPF-K(5-Fam)-NH2
- assaySetup: 40 nM BIR3, 5 nM labeled peptide, reported as ranges
Item-by-item account of Kd

CN[C@@H](C)C(=O)N[C@H](C(=O)N1CC[C@@H]2[C@H]1[C@@H](Oc1ccc(F)c(F)c1)CN2c1ncccn1)C(C)(C)C :: < 0.1 µM

Value lookup for Kd; key = CN[C@@H](C)C(=O)N[C@H](C(=O)N1CC[C@@H]2[C@H]1[C@@H](Oc1ccc(F)cc1)CN2S(C)(=O)=O)[C@@H](C)OC
< 0.1 µM

Request the reported Kd associated with CN[C@@H](C)C(=O)N[C@H](C(=O)N1CC[C@@H]2[C@H]1[C@@H](OC(=O)Nc1ccc3ccccc3c1)CN2C(=O)NC(C)C)C(C)(C)C
0.1 to 1 µM

Bench note: what Kd did CCNC(=O)O[C@H]1CN(C(=O)NC(C)C)[C@@H]2CCN(C(=O)[C@@H](NC(=O)[C@H](C)NC)C(C)(C)C)[C@H]12 show?
1 to 10 µM

Which Kd is listed for CN[C@@H](C)C(=O)N[C@H](C(=O)N1CC[C@H]2NC[C@H](COc3ccc(F)c(F)c3)[C@H]21)C(C)(C)C ?
< 0.1 µM

Given the entry CN[C@@H](C)C(=O)N[C@H](C(=O)N1CC[C@@H]2[C@H]1[C@@H](OC(=O)NC1CCCCC1)CN2C(=O)NC(C)C)C(C)(C)C , report its measured Kd.
0.1 to 1 µM

What value of Kd has been recorded for this entry: CN[C@@H](C)C(=O)N[C@H](C(=O)N1CC[C@@H]2[C@H]1[C@@H](OC(=O)NC(C)(C)C)CN2C(=O)NC(C)C)C(C)(C)C
1 to 10 µM
